# experimental-target: trypsin (Bos taurus, UniProt P00760)
# Sequence (P00760 24-246): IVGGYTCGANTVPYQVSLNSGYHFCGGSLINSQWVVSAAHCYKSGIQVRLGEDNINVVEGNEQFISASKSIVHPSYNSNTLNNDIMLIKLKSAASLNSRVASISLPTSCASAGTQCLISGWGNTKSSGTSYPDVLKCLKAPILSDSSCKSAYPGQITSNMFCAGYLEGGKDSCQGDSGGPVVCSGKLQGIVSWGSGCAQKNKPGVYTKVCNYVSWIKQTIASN
# method-summary: Ki with respect to trypsin (specificity of the inhibitors)
# Format: biochemical
metric: Ki
Include the unit after the number when you answer.

So, COc1cc(C)c(S(=O)(=O)N[C@@H](CC(=O)O)C(=O)N[C@H](Cc2ccc(C(=N)N)cc2)C(=O)N2CCCCC2)c(C)c1C [(5)] ? Its Ki was 312 nM

----------
# method-summary: Determination of the subcutaneous absorption of substances (2) and (5), rabbits
# Assay type: in vivo
# condition-context: rabbit, plasma, sc, 2 mg/kg, read-out: time to maximum plasma concentration (converted)
metric: Tmax (min)
Numeric only. Scale: min

So, "COc1cc(C)c(S(=O)(=O)N[C@@H](CC(=O)O)C(=O)N[C@H](Cc2ccc(C(=N)N)cc2)C(=O)N2CCCCC2)c(C)c1C" ? Its Tmax was 5

Reference source: patent US5571844A
